# Target Entity: Arachidonate 5-lipoxygenase-activating protein (Homo sapiens) (UniProt P20292)
# Sequence (P20292 whole entry): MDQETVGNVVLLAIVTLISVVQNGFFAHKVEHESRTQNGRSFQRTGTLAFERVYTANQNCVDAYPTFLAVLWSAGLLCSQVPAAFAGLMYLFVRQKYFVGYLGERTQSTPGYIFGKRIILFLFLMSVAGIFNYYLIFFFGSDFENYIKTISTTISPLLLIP
# Test Name: Inhibition of FLAP in A23187-stimulated human neutrophils assessed as remaining enzyme activity by measuring 5-LO product formation at 10 uM preincubated for 15 mins followed by A23187 and arachidonic acid addition and measured after 10 mins by UV based RP-HPLC analysis (reference value: 100%)
Readout Type: Activity (%)

{"columns": ["Molecule", "Assay Result"],
 "data": [
  ["N#Cc1ccc2c(c1)nc(NCCc1c[nH]c3ccccc13)n2Cc1ccccc1Cl", 63],
  ["N#Cc1ccc2c(c1)nc(NCc1ccc3cc[nH]c3c1)n2Cc1ccccc1Cl", 84]
]}

P = CC(C)CCc1ccc(C(C)c2nc3cc(C#N)ccc3n2Cc2ccccc2Cl)cc1 (centres undefined)
Q = N#Cc1ccc2c(c1)nc(NCc1ccc3[nH]ccc3c1)n2Cc1ccccc1Cl
Q: Name the one with the greater Activity value, either P or Q as given. Response format: the label of the selected entry.
Ans: P
